experiment: soluble fraction after stress (log2 fold change); higher = more stays soluble; pooled small domains, quantitative proteomics; conditions: stress: 75 degC;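 also: 20 min heating vs room temperature control held 20 min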
Classify by measured soluble fraction (log2): True if it is equal to or exceeds -1, False if it is smaller.

sequence.record	qualitative.label
HMLSTGIIIGDNVALRKTASSNGGIITRLDEGTVVKILASNVNAEWYQVEAGTKTGYVNRLYVNID	False
HMSGPDGLTEREIEVLRLLASGLSNRAIGERLYISTNTAANHVRSILLKTGAANRTQAAMYAADHEML	False
HMFTLDIGTIIRNRRLELNLTLEEIGNAVGVSKSTVQKWENGFISNMKRDKISALAKVLNINPVTLITGEY	False
HMEKSLKELAQGVGQKVLTSGRPYHFDPMSAMERRVVHMTLMEMDGLRTESEGEGRFRHVVVFPA	True
HMEKKGTVVIATVKGDIHDIGKNIVKVLLENYGFDVIDLGKDVPPEAVVEAVQQSGARLVGLSALM	True
HMKGILVPASSIISDGDKNYVWTVEKGKAKKVEVTLGNADAENQEISSGLTKDSKVITNPTDSLKDGQEV	True
HMVDITPDLIRTLLERFGEYGVTKEHIEARIQRHIESILPAQVVQLRKTYNSLKDGMSQPSDWFDI	False
HMRPQIAIDAIQALSLIMRTENKEDPTYLESRRVVSDAVAKRLSLNPTDLNRAWSRAPRDHQIAVLSALTQ	False
HMFPQQGEIRQGVIASITPDQILVNVGTKSEGIISGKELEAISKSERDSLNVDQKIAVYILDPEDSNG	True
HMGDPSSERNIQKSIFILIGEKALSVQDISRSLGMPNDIIDKALISGVERNLWLSSDKGEYYL	False
HMGDYERVPEYKGKLTSDLTMEDSQKFAFRFIWQNSDEDEGKIIDQDPPAGKSVAKGSEIVLYVSNG	True
HMSEQLKQIAERIKELRNIAGLGEEELAAKLDIPVDTYREYESGNVDIPVSFLYKISGMFNVELTAIL	False
HMDKSNEVLMNHYRKQEINQAKKRLEEEKMSIIQVLQLTNKEVITTDELLEALYISKEQLLDEIINTTQ	True
HMQADPYTVLGVLRDVTDGELKREYRKLVREHHPDALIAQGVPQEFVDIANNKLAVINAAYERIAKQRGL	True
HMAIDPLLDKGYEQYDKGEFTEAVKSFNRAIEIDPKNAEAHFLRAMTYQGLALSKLAVADLEKAIV	True
HMGITDHIYQDLKKRLENGNYPAGTRFPSESTLADEFSVNKMTMNKIVSMLAEQGYLIRGNRGAGTRVAEN	True
HMSVTDDQLRVFTNKSGTKIKAKIVEVSDDKVKLIRDDNKKFIVPINSLSEEDQDYLRDWVSNEAVEP	True
HMNTELSPKVWDVVQEFILYRKEIKAPMTEHAVKLLIGQLQKLSSDPDEQIEILRQSIVNGWKGIFSLK	False
HMISAVDLMAARRKIEAGITNLQPGQAFTLPNKVGWVKRMTGGSYFIQGNGGYTASVRTISEAIQAAAMLL	False
HMAPQQARAAKTRVKLLDAAATVVRRDGIQAMTLARVAEEAGVSKGGLLHHFGSKEELVTGMLEQ	True
HMKRNLESVLDHIEGIGPKRRKALYKHFGNLDAMRVAELEELESVEGMNKKAALAVYEFFRRNS	True
HMVLVEEYDTKDSASTFKIGYYARYNTKYGTPSKVGSYADNQRSGIWTFYTDSLKTYFKYNYSTGLIL	True
HMWVETITTKAGITKYKFQERYTDTYSGKTKRVSVTYTSNSRQAYKLAQAELQKKIDLATNTD	True
HMEYDEVVVVKQIIPKGKNTMVAHLKHLKEHGETGFLKQAVGYLKLHASEIPFSVDAVISEVH	True
HMVEVPNVIGMTKPELTQQFVNLKLDGSGEGDVVVQQSPSEGSKVKEGSTVRVYFG	True
HMSYYKEMIRLADSIADKAHEGQTDRNGWPYISHPRRVALGARKLVSEMASSTSPDTSLEELKAEVQIVAL	True
HMTAAPEVRVEGLFKGAAVLKIDGQQVMLKKGRSHSSGVTLVDANAHRAIVEIDGQRHELALHMA	True
HMSFSSLSNDILSEIQKDNNITYDELSEKLQKDRATIYRNMKKLVENGLLKRVGGRKSGHWEIIE	True
HMSEYIFGKNVVKEAFNNPSRIEEIYVLDKNMEFVSLAKKYHIKYTVITSSEMNKMVSGNHQGVVALVK	False
HMSDESALLELVKQIIADNPKAVEEIRAGKEKAMGFLIGQAMKASRGSANPQIISRLVREQLG	True
HMDAQNLQDQLFGFLKANPTQAYPAQTLADGLRLDDANAFTKVVQALAALERGGKVKVNEEGAFQYDAEK	True
HMWPQIAGFADRFGLSDTERRIVTLMSHGRSRKIIASTLGYSQNTIRNYTRNIYAKAGVHSKQELLDLLDP	False
HMVGNYYDILGVPETATQDAIKKAFRSLAQQHHPDKNPDDPGAEAMFKKVSEAYQVLSDPDKRQTYDASL	True

* * *

experiment: soluble fraction after stress (log2 fold change); higher = more stays soluble; pooled small domains, quantitative proteomics; details: stress: 75 degC
Below is a list of entries, each paired with its recorded soluble fraction (log2) value.
property.name: soluble fraction (log2)

sequence.record	property.name	value
HMQADEENPKYPVITDGVIQLEVLESIDKTEEWLVERLAKDGYNNVSEIFIAEYENGNLSIVT	soluble fraction (log2)	0.0913
HMGLDNEGFERLRQKITRLLSEEALPVKELVDSFASKMRQEVLETLAFLQQEGVIEEKNGKLFLK	soluble fraction (log2)	-0.189
HMAVENTGLSKRELEILQMMARGMSNQEIGDALFISLSTVKTHVASIFSKLQAVRRTQAVGIAKSLKII	soluble fraction (log2)	-2.91
HMDSDFIKIEVLFNERNRLDLKAMMEASGFTDRGQFLSIMADLTGDENWDRNLDRGDIFYLPRSFTI	soluble fraction (log2)	-1.28
HMVVRRLPFGFSKRFGVLVVPGTSNPVELLYREDASMQSLLEARRVVAQPVAFKKTDVESFNAQLARAHEN	soluble fraction (log2)	-1.66
HMGQSKNERMLELVELLNKASRSYYQDAQEIMSNYEYDRLYDELQNLEKELGITLSNSPTVN	soluble fraction (log2)	-0.122
HMTGQEGLIGAHGVALTRLSNEEGEVKVQGEIWQARSDQEVAKGASIEVVHVDGLVLTVRPQH	soluble fraction (log2)	-0.0319
HMKEMTAKQIDMFSDKLSKLESFQSHYIADAGVSVTEYKQAIAAKLQDQFYVEAWGKYLADVGFT	soluble fraction (log2)	-0.393
HMGRSTQVPGVEKMTYSQAVQLLHDHGFRVDIRDSLYRDDIKPGHVIEQFPKAKSIVKPGRKIFLYINAV	soluble fraction (log2)	-1.43
HMRMTKPLPFDLAAFRNEFGFTKSIIMQEVGVSRHIYDNVERTNATPPEFYDDFVSFFQRHGQ	soluble fraction (log2)	-1.88
HMAEQEELDAIRPDLDGQEIMDILGIKPGREVGAARNFLLELRLDEGPLGYDEAVSRLLTWWAERT	soluble fraction (log2)	-0.0583
HMDDKVGKVFNYVQEKILTGEWDIGDKITPEISLSKELGVSRSVVREAIKKFVALNILSRTQGGGTYVNNL	soluble fraction (log2)	-0.848
HMPYNNLADAPASWKKLDDTPLTLGQVNWIAKIYDALVAKGMEKGAAAGTAISRFKKSFKVADGKWVQV	soluble fraction (log2)	-0.478
HMPSHALFWTLLKEVPGYDPHYKDVIKEGIVHEHSGGRTTSLSEMYTKYPREYSLMIEAMKG	soluble fraction (log2)	-0.475
HMERNAEDFAAKYQEIYQDMFRFALYTLKNRQEAEDVVSETVLDAWKGIEGLKNESAFSAWMFRILVNK	soluble fraction (log2)	0.126
HMVVYFGGPVMLERGIVLHTPDISTKGTINVSDDFALTAHKEILDNINKDTSSLQFKLAIGH	soluble fraction (log2)	-0.616
HMIGTPLSEWQKDAPEEITRDQIAELVILKFVTVEQLALASDAQLQRIGMGGVGLRERAKLYLNRK	soluble fraction (log2)	-1.87

* * *

assay: soluble fraction after stress (log2 fold change); higher = more stays soluble; pooled small domains, quantitative proteomics; conditions: stress: 75 degC
property.name: soluble fraction (log2)

sequence.record	property.name	value
HMDVNLSIRSGETIGIIGSTGSAKSTLVQLIPRLYDTTEGEVLVGGVNVKNYDLEALRNSVAMVLQKN	soluble fraction (log2)	-0.112
HMNTGTTISYSDFRDRVASGTVKEVQISDDRITGVLKNDETFNTVPVGNDSGLTKLLDDNGVTYSGTP	soluble fraction (log2)	0.299
HMHGYLSDPAARLIRARRKTLSIRITQEGNLEIRAPLGMPKGEIEAFLKEKAQWIETHRAKVLAEYA	soluble fraction (log2)	-2.84
HMNIWNEWAFKKWIESDEYTGPDMTDFGHRTLVDEEFSKQYKEQMSLFKERVLTDDEFSAKYGDL	soluble fraction (log2)	-0.811
HMQITTVSPKNYAEAELIGQRFREGNPVVMDLSKLDSDLGQRLVDFASGLVFALNGTVERIAKKVFLLSP	soluble fraction (log2)	-1.37
HMSVDEVEALYLKIAEDRLEGKLPDKVSESDLMRRYGLTKAQLGAILQRIVHEGWIERTPGHGWRFLPIL	soluble fraction (log2)	-0.538
HMPELTERELEVLLLTARGLPSSEAARLLFITRRTVAAHLTSIYGKLGARNKTEAVLAALKRGIIMLDQIG	soluble fraction (log2)	-3.99
HMTIPSYAEAVRYVRRQPRINTSTLADGLGIRWSLALDYLERMARSGVVGAIEDDGWWPVAR	soluble fraction (log2)	-0.977
